All figures here come from ChEMBL document CHEMBL6103573.

molecular target: Tubulin; assay: Inhibition of tubulin (unknown origin) polymerization assessed as decrease in fluorescence intensity in presence of GTP by fluorescence microplate reader
quantity_measured: IC50 (nM)

> print(dat)
                                smiles.code  test.system  quantity.measured  measured.number
1  CN(c1ccc2c(ccn2C)c1)c1nc(N2CCCC2)nc2sccc12      Tubulin               IC50             2510

* * *

tested on: KYSE-450; assay: Antiproliferative activity against human KYSE-450 cells assessed as inhibition of cell proliferation incubated for 48 hrs by MTT assay; format: functional, cell-based; conditions: KYSE-450, 48 h
pIC50: −log10 of the molar value.
Below, each entry is listed alongside its reported pIC50.
quantity_measured: pIC50

> print(dat)
                                 smiles.code  lt.gt.eq  measured.number
 1   CCCN(c1ccc2c(ccn2C)c1)c1nc(Cl)nc2sccc12         =             6.91
 2  CN(c1ccc2c(ccn2C)c1)c1nc(N2CCC(Cl)CC2)nc2sccc12         =             7.59
 3     CN(c1ccc2c(ccn2C)c1)c1nc(Cl)nc2ccsc12         =             7.79
 4  CN1CCN(c2nc(N(C)c3ccc4c(ccn4C)c3)c3ccsc3n2)CC1         =             6.41
 5         CN(c1ccc2c(ccn2C)c1)c1ncnc2ccsc12         =             7.46
 6     CN(c1ccc2c(ccn2C)c1)c1nc(Cl)nc2sccc12         =             8.48
 7        Cn1ccc2cc(Nc3nc(Cl)nc4ccsc34)ccc21         <             5.30
 8  CC(=O)N1CCN(c2nc(N(C)c3ccc4c(ccn4C)c3)c3ccsc3n2)CC1         =             6.38
 9  CN(c1ccc2c(ccn2C)c1)c1nc(N2CCC(F)CC2)nc2sccc12         =             7.68
10  CN(c1ccc2c(ccn2Cc2ccccc2)c1)c1nc(Cl)nc2sccc12         =             6.04
11  CN(c1ccc2c(ccn2C)c1)c1nc(N2CCC(O)CC2)nc2sccc12         =             7.52
12  CC(C)(C)OC(=O)n1ccc2cc(Nc3nc(Cl)nc4sccc34)ccc21         <             5.30
13  CCN1CCN(c2nc(N(C)c3ccc4c(ccn4C)c3)c3ccsc3n2)CC1         =             6.40
14            Cn1ccc2cc(Nc3ncnc4sccc34)ccc21         <             5.30
15  CN(c1ccc2c(ccn2C)c1)c1nc(N2CCN(C(=O)OC(C)(C)C)CC2)nc2sccc12         =             6.22
16    CCn1ccc2cc(N(C)c3nc(Cl)nc4sccc34)ccc21         =             7.40
17  COc1cc2c(c(OC)c1OC)-c1ccc(OC)c(=O)cc1[C@@H](NC(C)=O)CC2         =             7.23
18  CN(c1ccc2c(ccn2C)c1)c1nc(N2CCCCC2)nc2sccc12         =             7.88
19     CN(c1ccc2[nH]ccc2c1)c1nc(Cl)nc2sccc12         =             8.29
20        Cn1ccc2cc(Nc3nc(Cl)nc4sccc34)ccc21         <             5.30
21         CN(c1ccc2c(ccn2C)c1)c1ncnc2sccc12         =             7.60
22    CCN(c1ccc2c(ccn2C)c1)c1nc(Cl)nc2sccc12         =             8.11
